Recorded HepSE_Combined Scores values (Hepatotoxicity) are given below.
Lab note: record the figure alone, no unit after it.

// below: answered molecules
Query: Could you tell me which HepSE_Combined Scores is on file for CN1CCC[C@@H]1Cc1c[nH]c2ccc(CCS(=O)(=O)c3ccccc3)cc12 ?
Reply: 2

Query: Try this molecule next: c1ccc2[nH]c(-c3cscn3)nc2c1 [THIABENDAZOLE]
Reply: 2

Further cases:
Query: Looking for the measured HepSE_Combined Scores of C[C@H]1O[C@@H](O[C@H]2[C@@H](O)C[C@H](O[C@H]3[C@@H](O)C[C@H](O[C@H]4CC[C@@]5(C)[C@H](CC[C@@H]6[C@@H]5C[C@@H](O)[C@]5(C)[C@@H](C7=CC(=O)OC7)CC[C@]65O)C4)O[C@@H]3C)O[C@@H]2C)C[C@H](O)[C@@H]1O [DIGOXIN] , can you help?
Reply: 0

Query: Next up: [Cl-].[K+] [POTASSIUM CHLORIDE]
Reply: 0

Query: Record: C[C@H](O)[C@H](O)[C@H]1CNc2nc(N)[nH]c(=O)c2N1 [SAPROPTERIN]
Reply: 0

Query: Request: Nc1ccn([C@@H]2CS[C@H](CO)O2)c(=O)n1 [LAMIVUDINE]
Reply: 3

Query: Moving on to Oc1ccc(OCc2ccccc2)cc1 [MONOBENZONE]
Reply: 0

Query: And for C[C@]12C=CC(=O)C=C1CC[C@@H]1[C@@H]2[C@@H](O)C[C@@]2(C)[C@H]1CC[C@]2(O)C(=O)CO [PREDNISOLONE] ?
Reply: 1

Query: Thanks! And N[C@@H](C(=O)N[C@@H]1C(=O)N2C(C(=O)O)=C(Cl)CS[C@H]12)c1ccccc1 [CEFACLOR ANHYDROUS] ?
Reply: 2

Query: Would you kindly repeat that for CC(C)CC(N(C)C)C1(c2ccc(Cl)cc2)CCC1 (configuration not stated) [SIBUTRAMINE] ?
Reply: 3

Query: What do you get for O=C1C(O)=C([C@H]2CC[C@H](c3ccc(Cl)cc3)CC2)C(=O)c2ccccc21 [ATOVAQUONE] ?
Reply: 2

Query: Could you do the same for CC(C)(C)NCC(O)COc1cccc2c1CCC(=O)N2 (configuration not stated) [CARTEOLOL] , please?
Reply: 0

Query: Entry CN1[C@@H]2CC[C@H]1C[C@@H](OC(c1ccccc1)c1ccccc1)C2 [BENZTROPINE] please
Reply: 0

###

HepSE_Combined Scores, Hepatotoxicity: measured values

Observe how each entry below is paired with its result.
Query: Look up HepSE_Combined Scores for this molecule: CN(C)CCOc1ccc(/C(=C(/CCCl)c2ccccc2)c2ccccc2)cc1
Reply: 2

Query: Also CC(=O)OCC(=O)[C@@]12OC(C)(C)O[C@@H]1C[C@H]1[C@@H]3C[C@H](F)C4=CC(=O)C=C[C@]4(C)[C@@]3(F)[C@@H](O)C[C@@]12C [FLUOCINONIDE] , if possible.
Reply: 0

Query: Same lookup for CC(C)[N+](C)(CCOC(=O)C1c2ccccc2Oc2ccccc21)C(C)C , please.
Reply: 0

Query: Same question, C[C@]12CC[C@H]3[C@@H](CCC4=CC(=O)CC[C@@H]43)[C@@H]1CC[C@@H]2O this time
Reply: 0

Query: Cc1cn([C@H]2C[C@H](N=[N+]=[N-])[C@@H](CO)O2)c(=O)[nH]c1=O ?
Reply: 4

---
Query: Bench note: what HepSE_Combined Scores did C[C@@H]1C[C@H]2[C@H]3[C@H]([C@@H](O)C[C@]2(C)[C@@]1(O)C(=O)CO)[C@@]1(C)C=CC(=O)C=C1C[C@H]3Cl show?
Reply: 0

Query: And Cc1ccc(N(CC2=NCCN2)c2cccc(O)c2)cc1 ?
Reply: 0

Query: Another molecule: CN(N=O)C(=O)N[C@@H](C=O)[C@@H](O)[C@H](O)[C@H](O)CO
Reply: 0

###

Parameter HepSE_hepatitis: see the listing below.
- System: Hepatotoxicity
Keep it simple and answer with nothing but the number.

// worked examples, HepSE_hepatitis included
Query: Would you kindly share the measured HepSE_hepatitis for Fc1ccc([C@@H]2CCNC[C@H]2COc2ccc3c(c2)OCO3)cc1 [PAROXETINE] ?
Reply: 1

Query: And the next one, Nc1nc(NC2CC2)c2ncn([C@H]3C=C[C@@H](CO)C3)c2n1 [ABACAVIR] ?
Reply: 0

Query: Input CCCCCCCC(=O)CC[C@@H]1[C@@H](C/C=C\CCCC(=O)O)[C@@H](O)C[C@H]1O [UNOPROSTONE]
Reply: 0

Alright, here's another molecule for you.
Query: Entry under review: C[C@@H]1C[C@H]2[C@@H]3CCC4=CC(=O)C=C[C@]4(C)[C@@]3(F)[C@@H](O)C[C@]2(C)[C@@]1(O)C(=O)CO [DEXAMETHASONE] . Reported HepSE_hepatitis?
Reply: 0

###

Where a SMILES comes first, the peptide text is derived from it. Bridges are numbered along the chain shown (N, C = ends). [ ]: non-standard residue; d: D form. hArg = N=C(N)NCCCC[C@H](N)C(=O)O; Mpa = O=C(O)CCS
Target or system Hepatotoxicity; recorded quantity HepSE_jaundice.
Reply briefly: the number, and no unit.

Example cases with answers are listed next.
Query: Consider the compound shown here: COc1cc([C@@H]2c3cc4c(cc3[C@@H](O[C@@H]3O[C@@H]5CO[C@@H](c6cccs6)O[C@H]5[C@H](O)[C@H]3O)[C@H]3COC(=O)[C@H]23)OCO4)cc(OC)c1O [TENIPOSIDE] What is its recorded HepSE_jaundice?
Reply: 0

Query: How about CC(=O)[C@@]1(O)CC[C@H]2[C@@H]3C[C@H](C)C4=CC(=O)C=C[C@]4(C)[C@@]3(F)[C@@H](O)C[C@@]21C [FLUOROMETHOLONE] ?
Reply: 0

Query: Item: CC(=O)Oc1ccccc1C(=O)O [ASPIRIN]
Reply: 0

Query: What do you have for Nc1nc(/C(=C/CC(=O)O)C(=O)N[C@@H]2C(=O)N3C(C(=O)O)=CCS[C@H]23)cs1 [CEFTIBUTEN] ?
Reply: 1

Query: Here is the next compound: CC(C)(O/N=C(\C(=O)N[C@@H]1C(=O)N2C(C(=O)[O-])=C(C[n+]3ccccc3)CS[C@H]12)c1csc(N)n1)C(=O)O [CEFTAZIDIME]
Reply: 1

Query: Now the same for Oc1c(Cl)cc(Cl)c(Cl)c1Cc1c(O)c(Cl)cc(Cl)c1Cl [HEXACHLOROPHENE]
Reply: 0

Query: Next: CCC1(c2ccccc2)NC(=O)N(C)C1=O (centres undefined) [MEPHENYTOIN]
Reply: 1

Query: Now the compound C=CCN1CC[C@]23c4c5ccc(O)c4O[C@H]2C(=O)CC[C@@]3(O)[C@H]1C5 [NALOXONE]
Reply: 0

Please turn your attention to the following entry.
Query: Which HepSE_jaundice reading was recorded for the compound N=C(N)NCCCC[C@@H]1NC(=O)CCSSC[C@@H](C(N)=O)NC(=O)[C@@H]2CCCN2C(=O)[C@H](Cc2c[nH]c3ccccc23)NC(=O)[C@H](CC(=O)O)NC(=O)CNC1=O [EPTIFIBATIDE] ([Mpa][hArg]GDWPC-NH2; disulfide 1-7) ?
Reply: 0

###

Quick reference for HepSE_hepatomegaly among some molecules
- Tested on: Hepatotoxicity
- conditions: Liver
Please give the numeric answer without any surrounding text.

Query: Lab note: need HepSE_hepatomegaly with Hepatotoxicity for entry CC(C)(C)NC(=O)[C@@H]1C[C@@H]2CCCC[C@@H]2CN1C[C@@H](O)[C@H](Cc1ccccc1)NC(=O)[C@H](CC(N)=O)NC(=O)c1ccc2ccccc2n1 , please look it up.
Reply: 1

Further cases:
Query: Could you share what HepSE_hepatomegaly was measured for COc1ccc2c3c1O[C@H]1C(=O)CC[C@@]4(O)[C@@H](C2)N(C)CC[C@]314 [OXYCODONE] , tested on Hepatotoxicity?
Reply: 1

Query: Same lookup for Nc1ccc(S(N)(=O)=O)cc1 [SULFANILAMIDE] , please.
Reply: 0

Query: Now the molecule CC(C)(C(=O)O)c1ccc(C(O)CCCN2CCC(C(O)(c3ccccc3)c3ccccc3)CC2)cc1 (centres undefined) [FEXOFENADINE]
Reply: 0

Query: Try this molecule too: Nc1c2c(nc3ccccc13)CCCC2 [TACRINE]
Reply: 0

Query: Then what about the molecule O=C(O)c1cn(C2CC2)c2cc(N3CCNCC3)c(F)cc2c1=O [CIPROFLOXACIN] ?
Reply: 1

Query: Here is the next molecule: N[C@@H]1C[C@H]1c1ccccc1.N[C@H]1C[C@@H]1c1ccccc1 [TRANYLCYPROMINE]
Reply: 0

Query: Then this molecule: NNCCc1ccccc1 [PHENELZINE]
Reply: 0

Query: Next entry: NC1=NCC2c3ccccc3Cc3ccccc3N12 (centres undefined) [EPINASTINE]
Reply: 0
